measured on: T1, mouse CX3CR1 (mouse, UniProt Q9Z0D9 1-354)
T1 construct: whole, on cells
T1 sequence (looked up): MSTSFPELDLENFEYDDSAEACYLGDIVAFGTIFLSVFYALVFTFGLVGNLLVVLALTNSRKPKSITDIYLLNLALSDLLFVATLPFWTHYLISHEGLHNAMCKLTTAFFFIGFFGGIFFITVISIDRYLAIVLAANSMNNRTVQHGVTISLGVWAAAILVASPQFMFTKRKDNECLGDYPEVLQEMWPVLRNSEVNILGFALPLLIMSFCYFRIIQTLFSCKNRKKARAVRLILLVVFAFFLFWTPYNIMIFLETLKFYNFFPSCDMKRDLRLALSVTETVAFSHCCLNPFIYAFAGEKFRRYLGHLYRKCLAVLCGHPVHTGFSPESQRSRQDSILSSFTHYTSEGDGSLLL
measurement protocol: FACS binding on CHO cells expressing mouse CX3CR1, anti-cmyc detection
measurement kind: binding result

CX3CR1BII18E06 (VHH, Expressed in E. coli TG1 as c-myc, His6-tagged protein) VHH: KVQLVESGGGLVQPGGSLRLSCATSGTIFSNNAMGWYRQAPGKKRDLVASISSSGSTNYADSVKGRFTVSRDNDKNTGYLQMNSLKPEDTGVYYCTLDARRGWNTAYWGQGAQVTVSS = no binding
CX3CR1BII318 (VHH, Bivalent VHH (single polypeptide chain)) EVQLVESGGGSVQAGESLRLSCAASGSIFSSNAMAWYRQAPGKRRDLVAAINSVGVTKYADSVKGRFTISRDNAKNTVYLQMNSLKPEDTAVYYCTSDPRRGWDTRYWGQGTQVTVSSGGGGSGGGGSGGGGSGGGGSGGGGSGGGGSGGGGSEVQLVESGGGSVQAGESLRLSCAASGSIFSSNAMAWYRQAPGKRRDLVAAINSVGVTKYADSVKGRFTISRDNAKNTVYLQMNSLKPEDTAVYYCTSDPRRGWDTRYWGQGTQVTVSSAAAEQKLISEEDLNGAAHHHHHH = no binding
